Measurement record for RBP4 (Homo sapiens (Human), UniProt P02753); quantity recorded: IC50.
Counter-ions that a name gives are not always drawn.
Experimental Readout: IC50 (nM)

> print(dat)
                                    compound  measured.value
 1  COCCN1CCc2[nH]nc(C(=O)N3CCC(c4ccc(F)c(F)c4C(F)(F)F)CC3)c2C1 [Compound 94]            6.96
 2  N#Cc1ccc2nnc(C(=O)N3CCC(c4cccc(F)c4Cl)CC3)n2c1 [Compound 152]             3.1
 3  CCC(=O)N1CCc2c(C(=O)N3CCC(c4ccc(F)c(F)c4C(F)(F)F)CC3)n[nH]c2C1 [Compound 122]              17
 4  CC(=O)N1CCc2c(C(=O)N3CCC(c4cc(F)ccc4C(F)(F)F)CC3)n[nH]c2C1 [Compound 140]            9.28
 5  CCN1Cc2[nH]nc(C(=O)N3CCC(c4ccc(F)c(F)c4C(F)(F)F)CC3)c2C1 [Compound 96]            12.7
 6  O=C(c1n[nH]c2c1CN(C1COC1)CC2)N1CCC(c2cccc(F)c2Cl)CC1 [Compound 165]            15.6
 7  O=C(c1n[nH]c2c1CN(CCC(F)(F)F)CC2)N1CCC(c2cc(F)cc(F)c2C(F)(F)F)CC1 [Compound 129]            13.8
 8  N#CN1CCc2c(C(=O)N3CCC(c4cccc(F)c4C(F)(F)F)CC3)n[nH]c2C1 [Compound 78]             9.5
 9  N#Cc1ccc2nnc(C(=O)N3CCC(c4c(F)cccc4C(F)(F)F)CC3)n2c1 [Compound 157]            5.84
10  CNC(=O)N1CCc2[nH]nc(C(=O)N3CCC(c4cccc(F)c4C(F)(F)F)CC3)c2C1 [Compound 114]            10.3
11  O=C(c1n[nH]c2c1CN(CCC(F)(F)F)CC2)N1CCC(c2ccc(F)c(F)c2C(F)(F)F)CC1 [Compound 93]               8
12  CC(C)(C)CN1CCc2[nH]nc(C(=O)N3CCC(c4ccc(F)c(F)c4C(F)(F)F)CC3)c2C1 [Compound 90]            14.4
13  COCCN1Cc2[nH]nc(C(=O)N3CCC(c4ccc(F)c(F)c4C(F)(F)F)CC3)c2C1 [Compound 109]            14.9
14  N#CN1CCc2[nH]nc(C(=O)N3CCC(c4ccc(F)c(F)c4C(F)(F)F)CC3)c2C1 [Compound 95]            7.78
15  O=C(c1n[nH]c2c1CN(C(=O)N1CCNCC1)C2)N1CCC(c2ccc(F)c(F)c2C(F)(F)F)CC1 [Compound 169]              33
16  O=C(c1n[nH]c2c1CCNC2)N1CCC(c2cccc(F)c2Cl)CC1 [Compound 40, Hydrochloride]              14
17  COC(=O)N1CCc2c(C(=O)N3CCC(c4cc(F)cc(F)c4C(F)(F)F)CC3)n[nH]c2C1 [Compound 130]            12.8
18  O=C(c1n[nH]c2c1CCN(CC1CC1)C2)N1CCC(c2cccc(F)c2Cl)CC1 [Compound 146]            15.9
19  CC(=O)N1CCc2c(C(=O)N3CCC(c4cc(F)ccc4Cl)CC3)n[nH]c2C1 [Compound 143]            8.83
20  O=C(c1cccnc1)N1Cc2[nH]nc(C(=O)N3CCC(c4ccc(F)c(F)c4C(F)(F)F)CC3)c2C1 [Compound 104]            18.9
21  CS(=O)(=O)N1CCc2[nH]nc(C(=O)N3CCC(c4cc(F)ccc4Cl)CC3)c2C1 [Compound 144]            6.17
22  COC(=O)N1CCc2[nH]nc(C(=O)N3CCC(c4cc(F)cc(F)c4C(F)(F)F)CC3)c2C1 [Compound 138]            10.1
23  N#CN1Cc2[nH]nc(C(=O)N3CCC(c4ccc(F)c(F)c4C(F)(F)F)CC3)c2C1 [Compound 110]            15.6
24  O=C(c1n[nH]c2c1CN(C1COC1)C2)N1CCC(c2ccc(F)c(F)c2C(F)(F)F)CC1 [Compound 98]            11.8
25  N#Cc1ccc2nnc(C(=O)N3CCC(c4cc(F)cc(F)c4C(F)(F)F)CC3)n2c1 [Compound 132]            6.75
26  N#CN1CCc2c(C(=O)N3CCC(c4ccc(F)c(F)c4C(F)(F)F)CC3)n[nH]c2C1 [Compound 120]            3.45
27  COC(=O)N1CCc2c(C(=O)N3CCC(c4ccc(F)c(F)c4C(F)(F)F)CC3)n[nH]c2C1 [Compound 116]            11.4
28  CCC(=O)N1Cc2[nH]nc(C(=O)N3CCC(c4ccc(F)c(F)c4C(F)(F)F)CC3)c2C1 [Compound 84]            16.3
29  CC(=O)N1CCc2c(C(=O)N3CCC(c4ccc(F)cc4C(F)(F)F)CC3)n[nH]c2C1 [Compound 158]            8.63
30  CC(C)CC(=O)N1CCc2c(C(=O)N3CCC(c4ccc(F)c(F)c4C(F)(F)F)CC3)n[nH]c2C1 [Compound 123]            15.1
31  CC(=O)N1CCc2c(C(=O)N3CCC(c4cc(C(F)(F)F)cc(C(F)(F)F)c4)CC3)n[nH]c2C1 [Compound 153]             149

====

Assay Target: RBP4 (Homo sapiens (Human))
Experimental Details: Scintillation proximity (SPA) RBP4 binding assay
Particulars: 10 nM 3H-Retinol, 50 nM biotinylated RBP4
Structures can show the parent of a compound that is named as a salt.
IC50 values, listed per item
Experimental Readout: IC50 (nM)

> print(dat)
                                   compound  experimental.readout  readout.units  measured.value
1  N#Cc1ccc2nnc(C(=O)N3CCC(c4cccc(Cl)c4C(F)(F)F)CC3)n2c1                  IC50             nM            4.82
2  O=C(c1n[nH]c2c1CCNC2)N1CCC(c2ccc(F)c(F)c2C(F)(F)F)CC1 [Compound 34, Trifluoroacetic Acid Salt]                  IC50             nM            20.7
3  O=C(c1n[nH]c2c1CCN(CCC(F)(F)F)C2)N1CCC(c2cccc(F)c2C(F)(F)F)CC1                  IC50             nM             7.4
4  O=C(c1n[nH]c2c1CCNC2)N1CCC(c2cccc(F)c2C(F)(F)F)CC1 [Compound 30, Hydrochloride]                  IC50             nM            13.3
5  COC(=O)N1CCc2c(C(=O)N3CCC(c4cccc(F)c4Cl)CC3)n[nH]c2C1                  IC50             nM            17.1
6  CC(=O)N1CCc2c(C(=O)N3CCC(c4c(F)cccc4C(F)(F)F)CC3)n[nH]c2C1                  IC50             nM            19.4
7  O=C(c1n[nH]c2c1CNCC2)N1CCC(c2cccc(F)c2Cl)CC1 [Compound 42, Hydrochloride]                  IC50             nM             424

====

IC50 values, listed per item
Assay Target: RBP4-TTR interaction (Homo sapiens (Human), UniProt P02753)
Experimental Details: TR-FRET (HTRF) assay for retinol-induced RBP4-TTR interaction
Particulars: in the presence of 1 μM retinol; read-out: HTRF assay for antagonists of RBP4-TTR interaction: IC50
Experimental Readout: IC50 (nM)

> print(dat)
                                smiles.data  experimental.readout  measured.value
1  CC(=O)N1CCc2c(C(=O)N3CCC(c4ccc(F)cc4C(F)(F)F)CC3)n[nH]c2C1                  IC50            36.8
2  CC(C)CC(=O)N1CCc2c(C(=O)N3CCC(c4ccc(F)c(F)c4C(F)(F)F)CC3)n[nH]c2C1                  IC50            52.2
3  CS(=O)(=O)N1CCc2[nH]nc(C(=O)N3CCC(c4cc(F)ccc4Cl)CC3)c2C1                  IC50            70.3
4  COC(=O)N1CCc2[nH]nc(C(=O)N3CCC(c4ccc(F)c(F)c4C(F)(F)F)CC3)c2C1                  IC50            57.7
